assay: folding enthalpy; higher = less favourable; fluorescence melt of hairpins on a sequencing array, two-state fit; conditions: sodium 0.088 M
assayReadout: folding enthalpy

                                  seqtext          result
 0  GCTGAGCGAAAGCTAGGC ((..(((....)))..))  -20.3 kcal/mol
 1      GATCTCCAAAGAGATC ((((((....))))))  -35.6 kcal/mol
 2  GATGGGGGAAACCTCGTC ((.(.((....)).).))    -20 kcal/mol
 3  GTAACCGGAAACGGTTAC (((((((....)))))))  -38.8 kcal/mol
 4    GCCATCGAAAGATCGGC ((((((....))).)))  -24.7 kcal/mol
 5  GTATCAGCGAAAGCTTAC (((..(((....))))))   -8.4 kcal/mol
 6      GATCCCACTCGGGATC ((((((....))))))  -38.1 kcal/mol
 7  CGCGCGGAAACGCAGGCG ((((((....)))..)))  -28.6 kcal/mol
 8      GATCATGCACATGATC ((((((....))))))  -41.5 kcal/mol
 9  GTACGTGGAAACACATAC (((.(((....))).)))  -22.1 kcal/mol
10    GCACACGAAAGTGTTGC ((((((....))).)))  -32.5 kcal/mol
11  GCGAGACCGAAAGGTCGC (((..(((....))))))  -10.3 kcal/mol

====

assay: folding enthalpy; higher = less favourable; fluorescence melt of hairpins on a sequencing array, two-state fit; settings: sodium 0.088 M
assayReadout: folding enthalpy (kcal/mol)

                                 seqtext  numericreadout
0  GGGTAGGGAAACCTGTCC ((..(((....)))..))           -17.2
1  GCTGTGCGAAAGCCCTGC ((.(.((....)).).))           -15.3
2  GTCGTTCGAAAGAAGGAC (((.(((....))).)))           -38.1
3  GCGCTGCGAAAGCGGGGC ((.(.((....)).).))           -28.8
4  GCGAGGCGAAAGCTTTGC ((.(.((....)).).))           -20.3
5  GCCCACGAAAGTGACGGC ((((((....)))..)))           -19.9

====

assay: folding enthalpy; higher = less favourable; fluorescence melt of hairpins on a sequencing array, two-state fit; conditions: sodium 0.088 M
Each entry below lists one item and its recorded folding enthalpy value.
assayReadout: folding enthalpy (kcal/mol)

                                  seqtext      assayreadout  numericreadout
 0    GGCTCCGAAAGGACGCC ((((((....))).)))  folding enthalpy           -29.1
 1      GATCCGTAATCGGATC ((((((....))))))  folding enthalpy           -34.4
 2  GGACCCGGAAACGAGCCC ((.(.((....)).).))  folding enthalpy             -16
 3  GATACGACGAAAGTCATC (((..(((....))))))  folding enthalpy           -10.6
 4  GCCAAGCGAAAGCCGGGC (((..((....))..)))  folding enthalpy           -22.4
 5  GCTGTGCGAAAGCAAGGC ((..(((....)))..))  folding enthalpy             -20
 6  CGTATCCGGAAACGGACG (((..(((....))))))  folding enthalpy           -13.8
 7  GCGCAGCGAAAGCGACGC (((..((....))..)))  folding enthalpy           -15.8
 8  GTTGGTGGAAACATCGAC ((.(.((....)).).))  folding enthalpy           -21.1
 9      GATCCAGAACTGGATC ((((((....))))))  folding enthalpy           -37.6
10    GCCACCCGAAAGGGGGC (((.(((....))))))  folding enthalpy           -22.8
11  GCCTATGCGAAAGCAGGC (((..(((....))))))  folding enthalpy           -23.1
12  GCATACGGAAACGTATGC (((((((....)))))))  folding enthalpy           -47.5
13  GTGTTCGAAAGAATGCAC ((((((....)))..)))  folding enthalpy           -19.1
14      GCACGAGAAATCGTGC ((((((....))))))  folding enthalpy             -32
15  GGTCGGGGAAACCTGACC ((((.((....)).))))  folding enthalpy           -37.5
16  CGGAACGGAAACGTCCCG (((.(((....))).)))  folding enthalpy           -36.3
17        GATCTGGCGCAGATC ((((((...))))))  folding enthalpy           -27.4
18  GCTCTGCGAAAGCACAGC (((.(((....))).)))  folding enthalpy           -25.6
19    GCGGTTCGAAAGAACGC (((.(((....))))))  folding enthalpy           -26.8
20    GCGTCCGAAAGGAGCGC ((((((....))).)))  folding enthalpy           -22.9
21  CGTAGCGGAAACGCGACG (((.(((....))).)))  folding enthalpy             -31
22      GATCTAGACTTAGATC ((((((....))))))  folding enthalpy           -39.3
23  GAGAGAACGAAAGTTCTC (((..(((....))))))  folding enthalpy           -14.7
24  GCTGGGCGAAAGCACCGC ((.(.((....)).).))  folding enthalpy           -20.7

====

assay: folding enthalpy; higher = less favourable; fluorescence melt of hairpins on a sequencing array, two-state fit; conditions: sodium 0.088 M
Could you label it yes if measured folding enthalpy is -20 kcal/mol or higher, and no otherwise?

>>> df
                                  seqtext  category
 0      GATCTTGAGTAAGATC ((((((....))))))        no
 1  GCGAGGCGAAAGCTTGGC ((.(.((....)).).))       yes
 2  GCATCGCGAAAGCGGGGC ((..(((....)))..))        no
 3  GTTTTCGGAAACGGAAAC ((((.((....)).))))        no
 4  GTTACCGAAAGGTGAAAC ((((((....)))..)))       yes
 5      GATCGACCGATCGATC ((((((....))))))        no
 6  GGATGTGGAAACACGTCC (((.(((....))).)))        no
 7    GGCATCGAAAGATCGCC ((((((....))).)))        no
 8  GTTAACGAAAGTTACAAC ((((((....)))..)))       yes
 9  GTAGCCGGAAACGGCTGC (.(((((....))))).)       yes
10  GTCAAACGAAAGTTCGAC (((.(((....))).)))        no

====

assay: folding enthalpy; higher = less favourable; fluorescence melt of hairpins on a sequencing array, two-state fit; conditions: sodium 0.088 M
Could you label it yes (1) if measured folding enthalpy is -30 kcal/mol or higher, and no (0) otherwise?

>>> print(df.to_string())
                                  seqtext  category
 0  GGGTCGGGAAACCGGCTC (.(.(((....))).).)   yes (1)
 1        GATCACCTTGTGATC ((((((...))))))    no (0)
 2  GTGACTGGAAACGGTCAC (((((.(....).)))))    no (0)
 3  GAAAACGGAAACGTTCTC ((.((((....)))).))   yes (1)
 4    GCGTATCGAAAGATCGC (((.(((....))))))    no (0)
 5  GTGGGCTCGAAAGAGCAC (((..(((....))))))   yes (1)
 6  GACGGGCGAAAGCCGGTC (((.(((....))).)))   yes (1)
 7      GATCAGACTGCTGATC ((((((....))))))   yes (1)
 8  GGGAACGAAAGTTCACCC ((((((....)))..)))   yes (1)
 9  GTTTGCGGAAACGCGAAC (((.(((....))).)))    no (0)
10  GCCTAAGGAAACTCAGGC ((((.((....)).))))    no (0)
11      GATCAGAGCCCTGATC ((((((....))))))    no (0)
